assay: Chemical stability of the compound assessed as parent compound remaining at 1 mg/ml measured after 1 day at 45 degC by HPLC method (reference value: 100%); format: physicochemical; conditions: read-out: Stability
Endpoint label: remaining at 24 h, 1 mg/ml (%)

The following molecules have reported results that may help.
1) CS(=O)(=O)c1ccc(NNC(=O)CC[C@H](N)C(=O)O)c(F)c1 = 99.4
2) Cc1ccc(NNC(=O)CC[C@H](N)C(=O)O)cc1 = 85.1
3) Cc1ccccc1NNC(=O)CC[C@H](N)C(=O)O = 82.3

I = CS(=O)(=O)c1ccc(NNC(=O)CC[C@H](N)C(=O)O)cc1
II = N[C@@H](CCC(=O)NNc1ccccc1O)C(=O)O
Ask: Parameter metric = remaining at 24 h, 1 mg/ml. Return the lower-valued option from I and II . Respond with the label that goes with your answer.
Result: II

###

experiment: Chemical stability of the compound assessed as parent compound remaining at 1 mg/ml measured after 21 days at 45 degC by HPLC method (reference value: 100%); type: physicochemical; settings: read-out: Stability
Endpoint label: remaining at 504 h, 1 mg/ml (%)

1. CS(=O)(=O)c1ccc(NNC(=O)CC[C@H](N)C(=O)O)c(F)c1 = 88.8
2. CS(=O)(=O)c1ccc(NNC(=O)CC[C@H](N)C(=O)O)cc1 = 79.2
3. Cc1ccc(NNC(=O)CC[C@H](N)C(=O)O)cc1 = 58.1

###

test: Chemical stability of the compound assessed as parent compound remaining at 1 mg/ml measured after 7 days at 45 degC by HPLC method (reference value: 100%); assay type: physicochemical; conditions: read-out: Stability
Endpoint label: remaining at 168 h, 1 mg/ml (%)

1. CS(=O)(=O)c1ccc(NNC(=O)CC[C@H](N)C(=O)O)cc1 = 94.6
2. Cc1ccc(NNC(=O)CC[C@H](N)C(=O)O)cc1 = 82
3. CS(=O)(=O)c1ccc(NNC(=O)CC[C@H](N)C(=O)O)c(F)c1 = 95
4. Cc1ccccc1NNC(=O)CC[C@H](N)C(=O)O = 73.8

###

experiment: Chemical stability of the compound assessed as parent compound remaining at 1 mg/ml measured after 28 days at 45 degC by HPLC method (reference value: 100%); type: physicochemical; details: read-out: Stability
Endpoint label: remaining at 672 h, 1 mg/ml (%)

1. Cc1ccc(NNC(=O)CC[C@H](N)C(=O)O)cc1 = 50.4
2. CS(=O)(=O)c1ccc(NNC(=O)CC[C@H](N)C(=O)O)cc1 = 70.7
3. CS(=O)(=O)c1ccc(NNC(=O)CC[C@H](N)C(=O)O)c(F)c1 = 87.2
